Data provenance is paper PMC5274652.

- Assay System: human RARα (Homo sapiens, UniProt P10276)
- Construct: made in house
- Sequence (P10276 1-462): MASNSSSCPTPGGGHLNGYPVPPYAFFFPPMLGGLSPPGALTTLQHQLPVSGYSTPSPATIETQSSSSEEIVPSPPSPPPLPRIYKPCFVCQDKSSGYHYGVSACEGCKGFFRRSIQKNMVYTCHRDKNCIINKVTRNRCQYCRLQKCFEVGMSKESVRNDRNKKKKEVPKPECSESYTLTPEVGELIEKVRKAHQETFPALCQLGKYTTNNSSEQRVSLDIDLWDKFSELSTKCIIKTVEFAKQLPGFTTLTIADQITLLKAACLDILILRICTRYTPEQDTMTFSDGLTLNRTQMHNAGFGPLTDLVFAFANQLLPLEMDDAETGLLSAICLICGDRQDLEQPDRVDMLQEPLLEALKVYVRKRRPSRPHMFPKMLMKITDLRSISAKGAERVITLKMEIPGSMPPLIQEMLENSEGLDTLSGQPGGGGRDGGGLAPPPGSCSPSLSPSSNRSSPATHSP
- Assay Explanation: Competition with [3H]-ATRA binding, nuclear extracts of Sf21 cells expressing RARα
- Condition Label: nuclear extracts of baculovirus-infected Sf21 cells, read-out: Binding affinity ED50, RARα
IC50 by entry:

Molecule: CCc1ccc(C2=CC(C)(C)Sc3ccc(C#Cc4ccc(C(=O)O)cc4)cc32)cc1 [AGN194310]
Scale Unit: nM
IC50: 4.3
--
Molecule: CC1(C)CCC(C)(C)c2c1cc(C(=O)Nc1cc(F)c(C(=O)O)c(F)c1)c(O)c2Cl [AGN195183]
Scale Unit: nM
IC50: 20.1
--
Molecule: CCOc1c(Br)cc(C(=O)Nc2ccc(C(=O)O)cc2)cc1C(=O)c1ccc(C)cc1 [AGN196996]
Scale Unit: nM
IC50: 3.9

====

- Assay System: human RARβ (Homo sapiens, UniProt P10826)
- Construct: made in house
- Sequence (P10826 whole entry): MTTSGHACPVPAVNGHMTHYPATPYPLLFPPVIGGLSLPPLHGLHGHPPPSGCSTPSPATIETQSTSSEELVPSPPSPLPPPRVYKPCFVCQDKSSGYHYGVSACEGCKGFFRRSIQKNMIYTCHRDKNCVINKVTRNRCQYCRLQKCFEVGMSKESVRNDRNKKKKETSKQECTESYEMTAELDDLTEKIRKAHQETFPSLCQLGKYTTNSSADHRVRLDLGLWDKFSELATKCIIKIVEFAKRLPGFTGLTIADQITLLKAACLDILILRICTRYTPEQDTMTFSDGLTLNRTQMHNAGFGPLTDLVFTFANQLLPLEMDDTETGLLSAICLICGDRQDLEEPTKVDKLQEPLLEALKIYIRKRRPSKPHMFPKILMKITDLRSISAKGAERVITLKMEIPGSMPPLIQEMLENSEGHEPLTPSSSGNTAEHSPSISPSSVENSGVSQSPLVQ
- Assay Explanation: Competition with [3H]-ATRA binding, nuclear extracts of Sf21 cells expressing RARβ
- Condition Label: nuclear extracts of baculovirus-infected Sf21 cells, read-out: Binding affinity ED50, RARβ
IC50 by entry:

Compound: CCOc1c(Br)cc(C(=O)Nc2ccc(C(=O)O)cc2)cc1C(=O)c1ccc(C)cc1 [AGN196996]
Scale Unit: µM
Modifier: =
IC50: 4.036

Compound: CC1(C)CCC(C)(C)c2c1cc(C(=O)Nc1cc(F)c(C(=O)O)c(F)c1)c(O)c2Cl [AGN195183]
Scale Unit: µM
Modifier: >
IC50: 5

Compound: CCc1ccc(C2=CC(C)(C)Sc3ccc(C#Cc4ccc(C(=O)O)cc4)cc32)cc1 [AGN194310]
Scale Unit: µM
Modifier: =
IC50: 0.005
